test system: Shionogi mouse mammary carcinoma cells; assay: Antiandrogenic activity: inhibition of DHT-induced proliferation of Shionogi cells; assay type: cell-based; conditions: Mus musculus; Table 5; bracketed value; read-out: Antiandrogenic Activity Shlonogl, DHT [IC50 (nM)]
measurement_name: IC50 (nM)

- molecule: "CN1C(=O)C=C[C@]2(C)C3CC[C@@]4(C)C(CC[C@@]45CCCC(=O)O5)C3CCC12 (stereo partly shown) [EM-1122-CS]"
  endpoint_value: 447

* * *

system: progesterone receptor; assay: Progesterone receptor assay: inhibition of [3H]R5020 binding, uterine cytosol; parameters: species or system rat; details: Table 4′; E^−6

- compound: "CN(C)CCOc1ccc2c(c1)CCC1C2CCC2(C)C1CCC21CCC(C)(C)C(=O)O1 (stereo not shown) [EM-1389-CS]"
  % Inhibition Progesterone Receptor E^−6 / %: 0
- compound: "COCCOc1cc2c(cc1C(=O)OC)C1CC[C@@]3(C)C(CC[C@@]34CCC(C)(C)C(=O)O4)C1CC2 (stereo partly shown) [EM-1402-CS]"
  % Inhibition Progesterone Receptor E^−6 / %: 4
- compound: "COc1ccc2c(c1)C(=O)CC1C2CC[C@@]2(C)C1CC[C@@]21CCC(C)(C)C(=O)O1 (stereo partly shown) [EM-1394]"
  % Inhibition Progesterone Receptor E^−6 / %: 4
- compound: "C[C@]12CCC3c4cc([N+](=O)[O-])c(O)cc4CCC3C1CC[C@@]21CCCC(=O)O1 (stereo partly shown) [EM-1124]"
  % Inhibition Progesterone Receptor E^−6 / %: 20
- compound: "COc1c(Br)cc2c(c1Br)CCC1C2CCC2(C)C1CCC21CCC(C)(C)C(=O)O1 (stereo not shown) [EM-1385-CS]"
  % Inhibition Progesterone Receptor E^−6 / %: 2
- compound: "CC1CCC2(CCC3C4CCc5ccccc5C4CCC32C)OC1=O (stereo not shown) [EM-1025]"
  % Inhibition Progesterone Receptor E^−6 / %: 4
- compound: "CN(C)C(=O)c1ccc2c(c1)CCC1C2CCC2(C)C1CCC21CCC(C)(C)C(=O)O1 (stereo not shown) [EM-1403]"
  % Inhibition Progesterone Receptor E^−6 / %: 0
- compound: "COc1cc2c(cc1C)C1CCC3(C)C(CCC34CCC(C)(C)C(=O)O4)C1CC2 (stereo not shown) [EM-1412-CS]"
  % Inhibition Progesterone Receptor E^−6 / %: 0
- compound: "CC1(C)CCC2(CCC3C4CCc5c(cc(Cl)c(OS(C)(=O)=O)c5Cl)C4CCC32C)OC1=O (stereo not shown) [EM-1392-CS]"
  % Inhibition Progesterone Receptor E^−6 / %: 2
- compound: "CC1(C)CC[C@@]2(CCC3C4CCc5cc(C(=O)O)ccc5C4CC[C@@]32C)OC1=O (stereo partly shown) [EM-1401]"
  % Inhibition Progesterone Receptor E^−6 / %: 0
- compound: "CC1(C)CC[C@@]2(CCC3C4CCc5cc6oncc6cc5C4CC[C@@]32C)OC1=O (stereo partly shown) [EM-1407-CS]"
  % Inhibition Progesterone Receptor E^−6 / %: 3
- compound: "CC1CCC2(CCC3C4CCc5cc(O)c([N+](=O)[O-])cc5C4CCC32C)OC1=O (stereo not shown) [EM-1131]"
  % Inhibition Progesterone Receptor E^−6 / %: 10
- compound: "COCCOc1cc2c(cc1Cl)C1CCC3(C)C(CCC34CCC(C)(C)C(=O)O4)C1CC2 (stereo not shown) [EM-1371-CS]"
  % Inhibition Progesterone Receptor E^−6 / %: 3
- compound: "CC1(C)CCC2(CCC3C4CCc5cc(OCCN6CCCCC6)ccc5C4CCC32C)OC1=O (stereo not shown) [EM-1390-CS]"
  % Inhibition Progesterone Receptor E^−6 / %: 2
- compound: "CC1(C)CC[C@@]2(CC[C@H]3[C@@H]4CCc5c(cc(Br)c(O)c5Br)[C@H]4CC[C@@]32C)OC1=O [EM-1382-CS]"
  % Inhibition Progesterone Receptor E^−6 / %: 0
- compound: "COCCOc1ccc2c(c1)C(=O)CC1C2CCC2(C)C1CCC21CCC(C)(C)C(=O)O1 (stereo not shown) [EM-1408-CS]"
  % Inhibition Progesterone Receptor E^−6 / %: 0
